Origin of the recorded values: patent US8541457B2

# key: entry, value: melting point

Would you please look over these solved cases?
{"columns": ["molecule", "melting point"],
 "data": [
  ["O=C(Nc1nc(Cl)c(C(=O)NCc2ccccc2)s1)c1ccccc1 [Example 3.1]", "247 to 249 °C"],
  ["Cc1nc(NC(=O)c2cccc(Cl)c2)sc1C(=O)NCc1ccccc1 [Example 2.19]", "178 to 179 °C"],
  ["Cc1nc(NC(=O)Nc2ccc(Cl)cc2)sc1C(=O)NCc1ccccc1 [Example 4.2]", "> 300 °C"],
  ["CCC(=O)Nc1nc(C)c(C(=O)NCc2ccccc2)s1 [Example 2.1]", "175 to 176 °C"],
  ["CCC(NC(=O)c1sc(NC(=O)c2ccccc2)nc1C)c1ccccc1 (stereo not shown) [Example 3]", "87 to 89 °C"]
]}

Value of melting point reported for the molecule COc1cccc(C(=O)Nc2nc(C)c(C(=O)NCc3ccccc3)s2)c1 [Example 2.34] is 75 to 77 °C

// melting point value for Cc1nc(NC(=O)c2ccccc2)sc1C(=O)n1ccnc1 [Example 10] : 228 to 231 °C

# melting point (molecule: Cc1nc(NC(=O)c2cccc(C#N)c2)sc1C(=O)NCc1ccccc1 [Example 2.26] ) is 207 to 208 °C

====

Readings of melting point for the listed compounds

// worked examples, melting point included
{"columns": ["compound", "property", "endpoint_value"],
 "data": [
  ["Cc1nc(NC(=O)c2cccc(C(F)(F)F)c2)sc1C(=O)NCc1ccccc1 [Example 2.22]", "melting point", "195 to 196 °C"],
  ["Cc1nc(NCc2ccccc2)sc1C(=O)NCc1ccccc1 [Example 8]", "melting point", "169 to 172 °C"],
  ["Cc1nc(NC(=O)c2ccccc2OC(F)(F)F)sc1C(=O)NCc1ccccc1 [Example 2.21]", "melting point", "140 to 141 °C"],
  ["COc1cc(C(=O)Nc2nc(C)c(C(=O)NCc3ccccc3)s2)ccn1 [Example 13]", "melting point", "188 to 190 °C"],
  ["Cc1nc(NC(=O)c2cccc(F)c2)sc1C(=O)NCc1ccccc1 [Example 2.31]", "melting point", "162 to 165 °C"]
]}

Recorded melting point (compound Cc1nc(NC(=O)c2cccnc2)sc1C(=O)NCc1ccccc1 [Example 2.27] ): 224 to 226 °C

The measured melting point associated with Cc1nc(NC(=O)Nc2ccccc2)sc1C(=O)NCc1ccccc1 [Example 4] reads > 300 °C

The compound listed as Cc1nc(NC(=O)c2cc(F)cc(F)c2)sc1C(=O)NCc1ccccc1 [Example 2.29] shows melting point equal to 84 to 86 °C

Cc1nc(NC(=O)c2cc(Cl)ccc2F)sc1C(=O)NCc1ccccc1 [Example 2.30] yielded melting point of 175 to 178 °C

The measured melting point associated with Cc1nc(NC(=O)c2ccc(OC(F)(F)F)cc2)sc1C(=O)NCc1ccccc1 [Example 2.32] reads 168 to 170 °C

Per the records, this compound ( Cc1nc(NC(=O)c2cc(Cl)cc(Cl)c2)sc1C(=O)NCc1ccccc1 [Example 2.24] ) has melting point equal to 104 to 105 °C

====

property: melting point

Example cases with answers are listed next.
{"columns": ["molecule", "endpoint_value"],
 "data": [
  ["Cc1nc(NC(=O)c2ccccc2)sc1C(=O)NCc1cccc(F)c1 [Example 7.2]", "216 to 217 °C"],
  ["Cc1nc(NC(=O)c2cc[nH]c(=O)c2)sc1C(=O)NCc1ccccc1 [Example 14]", "290 to 292 °C"],
  ["Cc1nc(NC(=O)CC2CC2)sc1C(=O)NCc1ccccc1 [Example 2.41]", "136 to 139 °C"]
]}

# molecule Cc1nc(NC(=O)c2ccncc2)sc1C(=O)NCc1ccccc1 [Example 1] ; its melting point = 171 to 172 °C

Cc1nc(NC(=O)c2cccc(OC(F)(F)F)c2)sc1C(=O)NCc1ccccc1 [Example 2.28] has a reported melting point of 230 to 232 °C

Form field melting point, entry Cc1nc(NC(=O)CCc2ccccc2)sc1C(=O)NCc1ccccc1 [Example 2.40] : 63 to 65 °C

====

A collection of compounds and their measured melting point

Would you please look over these solved cases?
{"columns": ["smi", "melting point"],
 "data": [
  ["Cc1ccc(S(=O)(=O)Nc2nc(C)c(C(=O)NCc3ccccc3)s2)cc1", "242 to 245 °C"],
  ["Cc1nc(NC(=O)c2ccccc2S(C)(=O)=O)sc1C(=O)NCc1ccccc1", "239 to 242 °C"]
]}

Looking up Cc1nc(NC(=O)c2cccc(S(C)(=O)=O)c2)sc1C(=O)NCc1ccccc1 , I found its melting point recorded as 111 to 113 °C

Please fill in: melting point reported for Cc1nc(NC(=O)C2CC2)sc1C(=O)NCc1ccccc1 = 241 to 243 °C

Entry COc1ccc(C(=O)Nc2nc(C)c(C(=O)NCc3ccccc3)s2)cc1 — recorded melting point = 203 to 204 °C

Recorded melting point (compound Cc1nc(NC(=O)c2ccc(Cl)c(Cl)c2)sc1C(=O)NCc1ccccc1 ): 212 to 214 °C

Reported melting point for Cc1nc(NC(=O)c2ccn(-c3ccccc3)c(=O)c2)sc1C(=O)NCc1ccccc1 was 260 to 262 °C

Lab book: melting point of Cc1nc(NC(=O)c2ccc(F)cc2Cl)sc1C(=O)NCc1ccccc1 noted as 95 to 96 °C

Sample Cc1nc(NC(=O)c2ccccc2)sc1C(=O)NCC1CC1 ; melting point observed: 163 to 166 °C

response.value for Cc1nc(NC(=O)c2cccc3ccccc23)sc1C(=O)NCc1ccccc1 (field: melting point) = 99 to 101 °C

So for Cc1nc(NC(=O)c2ccc(-c3nn[nH]n3)cc2)sc1C(=O)NCc1ccccc1 , the logged melting point turned out to be > 300 °C

====

melting point values for the compounds below.

For orientation, consider the following solved cases.
{"columns": ["smi", "melting point"],
 "data": [
  ["Cc1nc(NC(=O)c2ccccc2)sc1C(=O)NCc1ccccc1Cl", "191 to 193 °C"],
  ["Cc1nc(NC(=O)c2ccccc2)sc1C(=O)NCc1ccccc1C(F)(F)F", "198 to 199 °C"],
  ["Cc1nc(NC(=O)Cc2ccccc2)sc1C(=O)NCc1ccccc1", "63 to 65 °C"]
]}

// moving on: another record for melting point
The reported melting point of the compound Cc1nc(NC(=O)c2ccc(C#N)cc2)sc1C(=O)NCc1ccccc1 was 256 to 258 °C

====

Below, each of the compounds is paired with its reported melting point value.

{"columns": ["smi", "melting point"],
 "data": [
  ["Cc1nc(NC(=O)Nc2ccc(F)cc2)sc1C(=O)NCc1ccccc1", "> 300 °C"],
  ["Cc1nc(NC(=O)c2ccccc2)sc1C(=O)NCc1ccc(F)cc1", "206 to 208 °C"]
]}

Pending compound:
Per the record, Cc1nc(NC(=O)c2ccccc2)sc1C(=O)NCc1ccccc1F has melting point of 180 to 183 °C

====

The following molecules are listed with their measured melting point values.

These solved cases illustrate the format of a correct answer.
{"columns": ["smi", "endpoint_value"],
 "data": [
  ["Cc1nc(NC(=O)c2ccccc2)sc1C(=O)NCc1cccc(Cl)c1", "198 to 199 °C"],
  ["Cc1nc(NC(=O)c2ccccc2)sc1C(=O)NNC(=O)c1ccccc1", "258 to 260 °C"]
]}

melting point reading for Cc1nc(NC(=O)c2ccc(S(C)(=O)=O)cc2)sc1C(=O)NCc1ccccc1 : 262 to 265 °C
